Tested on: CAKI-1
Assay: GI50 of drug in presence of dasatinib; higher = less potent
Conditions: treatment: drug + dasatinib (fixed dose, not stated); 5 days
METRIC: GI50 of drug (nM)
Only the number, expressed in nM, is required.

Return reported GI50 of drug; argument: COc1ccc2c(Oc3ccc(NC(=O)c4c(C)n(CC(C)(C)O)n(-c5ccccc5)c4=O)nc3)ccnc2c1 [AMG458] + Cc1nc(Nc2ncc(C(=O)Nc3c(C)cccc3Cl)s2)cc(N2CCN(CCO)CC2)n1 [dasatinib] 893

Value lookup for GI50 of drug; key = CO[C@H]1C[C@H]2CC[C@@H](C)[C@@](O)(O2)C(=O)C(=O)N2CCCC[C@H]2C(=O)O[C@H]([C@H](C)C[C@@H]2CC[C@H](OP(C)(C)=O)[C@H](OC)C2)CC(=O)[C@H](C)/C=C(\C)[C@@H](O)[C@@H](OC)C(=O)[C@H](C)C[C@H](C)/C=C/C=C/C=C/1C (stereo in doubt) [Deforolimus (Ridaforolimus)] + Cc1nc(Nc2ncc(C(=O)Nc3c(C)cccc3Cl)s2)cc(N2CCN(CCO)CC2)n1 [dasatinib] 16.8

Item CC(C)n1nc(-c2ccc3oc(N)nc3c2)c2c(N)ncnc21 [INK 128] + Cc1nc(Nc2ncc(C(=O)Nc3c(C)cccc3Cl)s2)cc(N2CCN(CCO)CC2)n1 [dasatinib] has what recorded GI50 of drug? 9.18

Recorded GI50 of drug for CC(C)(C)c1cc(NC(=O)Nc2ccc(-c3cn4c(n3)sc3cc(OCCN5CCOCC5)ccc34)cc2)no1 [Quizartinib (AC220)] + Cc1nc(Nc2ncc(C(=O)Nc3c(C)cccc3Cl)s2)cc(N2CCN(CCO)CC2)n1 [dasatinib] , please? 1080

Sample Cc1[nH]c(/C=C2\C(=O)Nc3ccc(S(=O)(=O)Cc4c(Cl)cccc4Cl)cc32)c(C)c1C(=O)N1CCC[C@@H]1CN1CCCC1 + Cc1nc(Nc2ncc(C(=O)Nc3c(C)cccc3Cl)s2)cc(N2CCN(CCO)CC2)n1 [dasatinib] — what was its GI50 of drug? 2160

Consider the compound COc1cc2ncnc(Nc3cccc(Cl)c3)c2cc1OC [AG-1478 (Tyrphostin AG-1478)] + Cc1nc(Nc2ncc(C(=O)Nc3c(C)cccc3Cl)s2)cc(N2CCN(CCO)CC2)n1 [dasatinib] and give its measured GI50 of drug. 7730

For the compound shown here, c1cncc(CN2CCC(n3ncc4c(N5CCOCC5)nc(-c5ccc6[nH]ccc6c5)nc43)CC2)c1 [WAY-600] + Cc1nc(Nc2ncc(C(=O)Nc3c(C)cccc3Cl)s2)cc(N2CCN(CCO)CC2)n1 [dasatinib] , give the reported GI50 of drug. 306

* * *

Tested on: ACHN
Test: minimum viability across doses, drug alone, relative to DMSO (fraction); higher = less growth inhibition
Conditions: treatment: drug alone; 5 days
For each record, check the reported minimum viability across doses: if it is below 0.1 write Met, else write Not met.

Does the reported minimum viability across doses of the following molecule sit strictly below 0.1? Cc1ccc(C(=O)Nc2cccc(C(F)(F)F)c2)cc1Nc1nc(-c2cccnc2)nc2c1cnn2C Not met

API: query returns whether the molecule falls strictly under 0.1 in minimum viability across doses. Query: Cc1ccc(NC(=O)c2cccc(N(C)C)c2)cc1NC(=O)c1ccc(O)cc1 Not met

Please let me know if COc1cc2ncnc(Nc3ccc(F)c(Cl)c3)c2cc1NC(=O)/C=C/CN1CCCCC1 shows minimum viability across doses below 0.1. Met

Threshold test, minimum viability across doses < 0.1: Cc1cc2c(C(C)C)c(O)c(O)c(C=O)c2c(O)c1-c1c(C)cc2c(C(C)C)c(O)c(O)c(C=O)c2c1O Not met

Bench note: check whether COc1cc(CCc2cc(NC(=O)c3ccc(N4C[C@@H](C)N[C@@H](C)C4)cc3)n[nH]2)cc(OC)c1 shows minimum viability across doses below 0.1 Not met

# check: minimum viability across doses < 0.1 for CCn1nnc2c(N3CCOCC3)nc(-c3ccc(NC(=O)Nc4ccc(C(=O)N5CCN(C)CC5)cc4)cc3)nc21 Met

API: query returns whether the molecule falls strictly under 0.1 in minimum viability across doses. Query: CCCS(=O)(=O)Nc1ccc(F)c(C(=O)c2c[nH]c3ncc(Cl)cc23)c1F Not met

Criterion: minimum viability across doses strictly below 0.1. Is it met by Cc1nc(NC(=O)N2CCC[C@H]2C(N)=O)sc1-c1ccnc(C(C)(C)C(F)(F)F)c1 ? Not met

* * *

Test system: CAKI-1
Assay: GI50, drug alone; higher = less potent
Conditions: treatment: drug alone; 5 days
METRIC: GI50, drug alone

I have this molecule here, COc1cc2nccc(Oc3ccc(NC(=O)Nc4ccc(F)cc4F)c(F)c3)c2cc1OC , and I need its recorded GI50, drug alone. 7.43 µM

Dear colleague, I am looking for the recorded GI50, drug alone of the following molecule: C[C@@H]1CCN(C(=O)CC#N)C[C@@H]1N(C)c1ncnc2[nH]ccc12 > 10 µM

Sample CN1CCN(CCOc2cc(OC3CCOCC3)c3c(Nc4c(Cl)ccc5c4OCO5)ncnc3c2)CC1 — what was its GI50, drug alone? 2.34 µM

Fill in: GI50, drug alone of O=C1NC(=O)/C(=C/c2ccc(-c3ccc(F)cc3O)o2)S1 is ___ > 10 µM

* * *

For each of the compounds below, state its AUC of dose-response viability curve.
System: TK-10
Test: AUC of dose-response viability curve, drug + dasatinib, normalised to DMSO (arbitrary (AUC of normalised viability)); higher = less growth inhibition
Conditions: treatment: drug + dasatinib (fixed dose, not stated); 5 days

Name the recorded AUC of dose-response viability curve for Nc1nc(N)c2nc(-c3cccc(O)c3)c(-c3cccc(O)c3)nc2n1 [TG100-115] + Cc1nc(Nc2ncc(C(=O)Nc3c(C)cccc3Cl)s2)cc(N2CCN(CCO)CC2)n1 . 2.71

For the compound Cc1ccc(-n2nc(C(C)(C)C)cc2NC(=O)Nc2ccc(OCCN3CCOCC3)c3ccccc23)cc1 [BIRB 796 (Doramapimod)] + Cc1nc(Nc2ncc(C(=O)Nc3c(C)cccc3Cl)s2)cc(N2CCN(CCO)CC2)n1 , what AUC of dose-response viability curve is on record? 2.49

I would be grateful if you could share the reported AUC of dose-response viability curve for CCOC(=O)C1=C(N)Oc2ccc(Br)cc2[C@H]1[C@H](C#N)C(=O)OCC [HA14-1] + Cc1nc(Nc2ncc(C(=O)Nc3c(C)cccc3Cl)s2)cc(N2CCN(CCO)CC2)n1 . 2.71

Reported AUC of dose-response viability curve for CCn1cc(-c2ccnc3[nH]c(-c4cccc(CN(C)C)c4)cc23)c(-c2ccc(NC(=O)N(C)C)cc2)n1 + Cc1nc(Nc2ncc(C(=O)Nc3c(C)cccc3Cl)s2)cc(N2CCN(CCO)CC2)n1 : what is it? 2.03

// returns reported AUC of dose-response viability curve for input CCn1c(-c2nonc2N)nc2c(C#CC(C)(C)O)ncc(OC[C@H]3CCCNC3)c21 + Cc1nc(Nc2ncc(C(=O)Nc3c(C)cccc3Cl)s2)cc(N2CCN(CCO)CC2)n1 2.22

* * *

Assign AUC of dose-response viability curve to each entry below.
System: TK-10
Test: AUC of dose-response viability curve, drug + dasatinib, normalised to DMSO (arbitrary (AUC of normalised viability)); higher = less growth inhibition
Settings: treatment: drug + dasatinib (fixed dose, not stated); 5 days
Please state the value as a number alone, without comment.

# query: AUC of dose-response viability curve of entry Cc1c(CN2CCN(C(=O)[C@H](C)O)CC2)sc2c(N3CCOCC3)nc(-c3cnc(N)nc3)nc12 [GDC-0980 (RG7422)] + Cc1nc(Nc2ncc(C(=O)Nc3c(C)cccc3Cl)s2)cc(N2CCN(CCO)CC2)n1 1.47

I have this molecule here, O=c1[nH]c2ccc(Cl)cc2c(N[C@@H]2CN3CCC2CC3)c1-c1nc2ccccc2[nH]1 [CHIR-124] + Cc1nc(Nc2ncc(C(=O)Nc3c(C)cccc3Cl)s2)cc(N2CCN(CCO)CC2)n1 , and I need its recorded AUC of dose-response viability curve. 1.37

What AUC of dose-response viability curve value was documented for this molecule, CN(C)CC[C@H](CSc1ccccc1)Nc1ccc(S(=O)(=O)NC(=O)c2ccc(N3CCN(Cc4ccccc4-c4ccc(Cl)cc4)CC3)cc2)cc1[N+](=O)[O-] [ABT-737] + Cc1nc(Nc2ncc(C(=O)Nc3c(C)cccc3Cl)s2)cc(N2CCN(CCO)CC2)n1 ? 2.24

Tell me the measured AUC of dose-response viability curve of CCc1cnn2c(NCc3ccc[n+]([O-])c3)cc(N3CCCC[C@H]3CCO)nc12 + Cc1nc(Nc2ncc(C(=O)Nc3c(C)cccc3Cl)s2)cc(N2CCN(CCO)CC2)n1 , please. 1.11

Look at this molecule and give its reported AUC of dose-response viability curve. CCOc1cc2ncc(C#N)c(Nc3ccc(F)c(Cl)c3)c2cc1NC(=O)/C=C/CN(C)C [Pelitinib (EKB-569)] + Cc1nc(Nc2ncc(C(=O)Nc3c(C)cccc3Cl)s2)cc(N2CCN(CCO)CC2)n1 1.43

What value of AUC of dose-response viability curve has been recorded for this entry: OCc1ccc(-c2ccc(-c3ccc(CO)s3)o2)s1 + Cc1nc(Nc2ncc(C(=O)Nc3c(C)cccc3Cl)s2)cc(N2CCN(CCO)CC2)n1 0.849

Value lookup for AUC of dose-response viability curve; key = Cn1cc(C2=C(c3ccc(Cl)cc3Cl)C(=O)NC2=O)c2ccccc21 + Cc1nc(Nc2ncc(C(=O)Nc3c(C)cccc3Cl)s2)cc(N2CCN(CCO)CC2)n1 2.74

Consider the molecule shown here: FC(F)(F)c1ccc(Nc2nc3cc(Oc4ccnc(-c5ncc(C(F)(F)F)[nH]5)c4)ccc3[nH]2)cc1 [Raf265 derivative] + Cc1nc(Nc2ncc(C(=O)Nc3c(C)cccc3Cl)s2)cc(N2CCN(CCO)CC2)n1 What is its recorded AUC of dose-response viability curve? 2.73

Quick one: AUC of dose-response viability curve of Cc1ccccc1-n1c(Cn2ncc3c(N)ncnc32)nc2cccc(C)c2c1=O [PIK-293] + Cc1nc(Nc2ncc(C(=O)Nc3c(C)cccc3Cl)s2)cc(N2CCN(CCO)CC2)n1 ? 2.47

Could you share which AUC of dose-response viability curve value was measured for Cc1cc(Nc2nc(N[C@@H](C)c3ccc(F)cc3)c(C#N)cc2F)n[nH]1 [AZ 960] + Cc1nc(Nc2ncc(C(=O)Nc3c(C)cccc3Cl)s2)cc(N2CCN(CCO)CC2)n1 ? 2.17

Look up AUC of dose-response viability curve for this molecule: COc1ccc(COc2cc3oc(=O)c4cc(C(C)O)ccc4c3cc2OC)cc1 (stereo not drawn) [Palomid 529] + Cc1nc(Nc2ncc(C(=O)Nc3c(C)cccc3Cl)s2)cc(N2CCN(CCO)CC2)n1 2.53

Param item = Cc1ccc([N+](=O)[O-])cc1S(=O)(=O)N(C)/N=C/c1cnc2ccc(Br)cn12.Cl [PIK-75] + Cc1nc(Nc2ncc(C(=O)Nc3c(C)cccc3Cl)s2)cc(N2CCN(CCO)CC2)n1 ; retrieve measured AUC of dose-response viability curve. 1.4

Which AUC of dose-response viability curve is listed for CN1CCN(c2cccc(Nc3nc4c(-c5ccc(S(C)(=O)=O)cc5)cccn4n3)c2)CC1 + Cc1nc(Nc2ncc(C(=O)Nc3c(C)cccc3Cl)s2)cc(N2CCN(CCO)CC2)n1 ? 2.12

I'd like to know its AUC of dose-response viability curve. The molecule in question is O=C(Nc1c[nH]nc1-c1nc2cc(CN3CCOCC3)ccc2[nH]1)NC1CC1 [AT9283] + Cc1nc(Nc2ncc(C(=O)Nc3c(C)cccc3Cl)s2)cc(N2CCN(CCO)CC2)n1 1.83

AUC of dose-response viability curve lookup needed for Nc1cccc(-c2cc3c(Oc4cccc(O)c4)ncnc3[nH]2)c1 [TWS119] + Cc1nc(Nc2ncc(C(=O)Nc3c(C)cccc3Cl)s2)cc(N2CCN(CCO)CC2)n1 , thanks. 2.34

Please give the measured AUC of dose-response viability curve for this molecule: CCN(CCO)CCCOc1ccc2c(Nc3cc(CC(=O)Nc4cccc(F)c4)n[nH]3)ncnc2c1 [Barasertib (AZD1152-HQPA)] + Cc1nc(Nc2ncc(C(=O)Nc3c(C)cccc3Cl)s2)cc(N2CCN(CCO)CC2)n1 2.65

Which AUC of dose-response viability curve value belongs to CC(C)(C)c1cc(C=C(C#N)C#N)cc(Br)c1O [AG-1024] + Cc1nc(Nc2ncc(C(=O)Nc3c(C)cccc3Cl)s2)cc(N2CCN(CCO)CC2)n1 ? 2.59

Report AUC of dose-response viability curve for COC(=O)c1ccc2c(c1)NC(=O)/C2=C(\Nc1ccc(N(C)C(=O)CN2CCN(C)CC2)cc1)c1ccccc1 [BIBF1120 (Vargatef)] + Cc1nc(Nc2ncc(C(=O)Nc3c(C)cccc3Cl)s2)cc(N2CCN(CCO)CC2)n1 please. 2.88
